# System: Escherichia coli TOP10
# Assay notes: shrunken log2 fold change of peptide-encoding DNA abundance (4.5 h post-induction vs induction); higher = less antimicrobial activity (less host growth inhibition)
# Condition context: time post-induction: 4.5 h; library: site-saturation at positions 5, 18, 19, 20
Entries and their shrunken log2 fold change
Answer field: number only, no words.

RRIRMRPPRLPRPRPRPAWQPRP    0.197
RRIRGRPPRLPRPRPRPRVLPRP    0.367
RRIRFRPPRLPRPRPRPLPFPRP    -0.452
RRIRGRPPRLPRPRPRPTVNPRP    0.597

# context switch: different sequence, same shrunken log2 fold change
What shrunken log2 fold change appears in the records for this sequence with Escherichia coli TOP10? RRIRERPPRLPRPRPRPTYYPRP -0.614

====

# Tested on: Escherichia coli TOP10
# Assay notes: shrunken log2 fold change of peptide-encoding DNA abundance (4.5 h post-induction vs induction); higher = less antimicrobial activity (less host growth inhibition)
# Condition context: time post-induction: 4.5 h; library: site-saturation at positions 5, 18, 19, 20
Metric name: shrunken log2 fold change
Respond numerically, and do not add a unit to the figure.

Some sequences with known shrunken log2 fold change results, for comparison:
RRIRVRPPRLPRPRPRPKWMPRP    -0.0468
RRIRQRPPRLPRPRPRPFLVPRP    0.000414
RRIRVRPPRLPRPRPRPWGQPRP    -0.191

For RRIRKRPPRLPRPRPRPGCWPRP , what is its reported shrunken log2 fold change? 0.466

Look up shrunken log2 fold change: RRIRYRPPRLPRPRPRPGAMPRP 0.986

Please look up its shrunken log2 fold change: RRIRFRPPRLPRPRPRPANDPRP 0.0325

Request the reported shrunken log2 fold change associated with RRIRRRPPRLPRPRPRPDETPRP 0.745

For the sequence shown here, RRIRFRPPRLPRPRPRPQKNPRP , give the reported shrunken log2 fold change. 0.16

Entry under review: RRIRHRPPRLPRPRPRPALFPRP . Reported shrunken log2 fold change? -0.0554

Can you look up the measured shrunken log2 fold change of RRIRRRPPRLPRPRPRPFENPRP for me? 0.0967

May I ask what shrunken log2 fold change has been recorded for RRIRDRPPRLPRPRPRPNHIPRP ? -1

Can you share its shrunken log2 fold change? I mean this sequence: RRIRDRPPRLPRPRPRPSNWPRP -0.136

# input sequence: RRIRGRPPRLPRPRPRPQYYPRP ; wanted: its shrunken log2 fold change -0.399

Return reported shrunken log2 fold change; argument: RRIRQRPPRLPRPRPRPNVWPRP 0.134

====

Item-by-item account of shrunken log2 fold change
# Test system: Escherichia coli TOP10
# Assay notes: shrunken log2 fold change of peptide-encoding DNA abundance (4.5 h post-induction vs induction); higher = less antimicrobial activity (less host growth inhibition)
# Condition context: time post-induction: 4.5 h; library: site-saturation at positions 5, 18, 19, 20
Could you respond with only the numeric value?

Worked cases, answers included:
RRIRGRPPRLPRPRPRPNPLPRP    0.217
RRIRCRPPRLPRPRPRPGQKPRP    0.0902
RRIRARPPRLPRPRPRPDRTPRP    0.192

# ---- query sequence ----
Item RRIRQRPPRLPRPRPRPCENPRP has what recorded shrunken log2 fold change? 0.0237

====

# Tested on: Escherichia coli TOP10
# Assay notes: shrunken log2 fold change of peptide-encoding DNA abundance (4.5 h post-induction vs induction); higher = less antimicrobial activity (less host growth inhibition)
# Condition context: time post-induction: 4.5 h; library: site-saturation at positions 5, 18, 19, 20
Metric name: shrunken log2 fold change
Answer field: number only, no words.

Here is how some sequences turned out for shrunken log2 fold change.
RRIRDRPPRLPRPRPRPADPPRP    -0.155
RRIRFRPPRLPRPRPRPVNNPRP    -0.316
RRIRIRPPRLPRPRPRPTWFPRP    0.159
RRIRSRPPRLPRPRPRPRHFPRP    0.141
RRIRKRPPRLPRPRPRPCDEPRP    0.121
RRIRSRPPRLPRPRPRPLTQPRP    0.243
RRIRWRPPRLPRPRPRPKSVPRP    -0.0882
RRIRHRPPRLPRPRPRPMDQPRP    -0.0412

Next:
For the sequence shown here, RRIRNRPPRLPRPRPRPEWYPRP , give the reported shrunken log2 fold change. -0.451

====

# Tested on: Escherichia coli TOP10
# Assay notes: shrunken log2 fold change of peptide-encoding DNA abundance (4.5 h post-induction vs induction); higher = less antimicrobial activity (less host growth inhibition)
# Condition context: time post-induction: 4.5 h; library: site-saturation at positions 5, 18, 19, 20
Metric name: shrunken log2 fold change
Number only, please.

// known answers, use as guide
RRIRDRPPRLPRPRPRPDFPPRP    0.0974
RRIRFRPPRLPRPRPRPIRSPRP    -0.0101

Entry RRIRTRPPRLPRPRPRPLGEPRP has what shrunken log2 fold change? 0.0248

For the sequence RRIRTRPPRLPRPRPRPAPLPRP , what shrunken log2 fold change is on record? 0.368

Using the record for RRIRSRPPRLPRPRPRPSYWPRP , report its shrunken log2 fold change. 2.29

Recorded shrunken log2 fold change of RRIRKRPPRLPRPRPRPLGIPRP , please. 4.29

Reported shrunken log2 fold change, sequence RRIRYRPPRLPRPRPRPWDRPRP : ____ -0.103

====

# Test system: Escherichia coli TOP10
# Assay notes: shrunken log2 fold change of peptide-encoding DNA abundance (4.5 h post-induction vs induction); higher = less antimicrobial activity (less host growth inhibition)
# Condition context: time post-induction: 4.5 h; library: site-saturation at positions 5, 18, 19, 20
Outcome label depends on shrunken log2 fold change relative to -0.02: at/above gives True, below gives False.

RRIRGRPPRLPRPRPRPWEFPRP    False
RRIRYRPPRLPRPRPRPDLEPRP    False
RRIRCRPPRLPRPRPRPEHTPRP    False
RRIRTRPPRLPRPRPRPNPWPRP    True
RRIRERPPRLPRPRPRPPPKPRP    True
RRIRRRPPRLPRPRPRPDLSPRP    False

We now examine a further sequence.
Entry RRIRDRPPRLPRPRPRPDEKPRP : is its shrunken log2 fold change no less than -0.02? True

====

# Tested on: Escherichia coli TOP10
# Assay notes: shrunken log2 fold change of peptide-encoding DNA abundance (4.5 h post-induction vs induction); higher = less antimicrobial activity (less host growth inhibition)
# Condition context: time post-induction: 4.5 h; library: site-saturation at positions 5, 18, 19, 20
Metric name: shrunken log2 fold change
No unit in the answer, please; the number alone is enough.

Worked examples, 5 sequences total:
RRIRNRPPRLPRPRPRPGRHPRP    0.00674
RRIRCRPPRLPRPRPRPYCMPRP    -1.09
RRIRYRPPRLPRPRPRPGNDPRP    -0.356
RRIRDRPPRLPRPRPRPNGRPRP    0.00232
RRIRHRPPRLPRPRPRPLEIPRP    -0.0535

Can you share its shrunken log2 fold change? I mean this sequence: RRIRSRPPRLPRPRPRPTNNPRP -0.455

Using the record for RRIRTRPPRLPRPRPRPCFMPRP , report its shrunken log2 fold change. -0.153

====

# System: Escherichia coli TOP10
# Assay notes: shrunken log2 fold change of peptide-encoding DNA abundance (4.5 h post-induction vs induction); higher = less antimicrobial activity (less host growth inhibition)
# Condition context: time post-induction: 4.5 h; library: site-saturation at positions 5, 18, 19, 20
Metric name: shrunken log2 fold change
API note: the answer field is a bare number with no unit suffix.

RRIRTRPPRLPRPRPRPVLSPRP    -0.328
RRIRARPPRLPRPRPRPWKQPRP    0.00355

Which shrunken log2 fold change value belongs to RRIRVRPPRLPRPRPRPQRFPRP ? -0.163

# query: shrunken log2 fold change of entry RRIRQRPPRLPRPRPRPAPPPRP 0.702

====

# System: Escherichia coli TOP10;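 note: peptides expressed intracellularly from a pBAD plasmid library in pooled LB shake-flask culture, induced with 0.3% L-arabinose, DNA abundance read by NGS, three biological replicates, DESeq2 with apeglm shrinkage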
# Assay notes: shrunken log2 fold change of peptide-encoding DNA abundance (4.5 h post-induction vs induction); higher = less antimicrobial activity (less host growth inhibition)
# Condition context: time post-induction: 4.5 h; library: site-saturation at positions 5, 18, 19, 20
Recorded shrunken log2 fold change, one value per entry.
Hey, just send me the number, nothing else.

Solved cases below.
RRIRIRPPRLPRPRPRPHWCPRP    0.164
RRIRDRPPRLPRPRPRPGKQPRP    -0.0597
RRIRFRPPRLPRPRPRPIPAPRP    -0.15
RRIRKRPPRLPRPRPRPHYLPRP    0.0182
RRIRVRPPRLPRPRPRPCQYPRP    -0.53

# query: shrunken log2 fold change of entry RRIRYRPPRLPRPRPRPYRCPRP 0.0155

Tell me the measured shrunken log2 fold change of RRIRCRPPRLPRPRPRPLHDPRP , please. 0.0221

shrunken log2 fold change lookup needed for RRIRVRPPRLPRPRPRPHHFPRP , thanks. -0.114

Quick one: shrunken log2 fold change for RRIRNRPPRLPRPRPRPGGGPRP ? 0.723

Given the sequence RRIRLRPPRLPRPRPRPNFQPRP , what is its reported shrunken log2 fold change? -0.0242

Recorded shrunken log2 fold change for RRIRLRPPRLPRPRPRPREVPRP , please? 0.59

Bench note: what shrunken log2 fold change did RRIRNRPPRLPRPRPRPGGLPRP show? -0.13

I have this sequence here, RRIRNRPPRLPRPRPRPLDVPRP , and I need its recorded shrunken log2 fold change. -0.251

Data request, read-out shrunken log2 fold change, for RRIRTRPPRLPRPRPRPMEQPRP -0.189

What does the data say about its shrunken log2 fold change? Entry: RRIRVRPPRLPRPRPRPYIVPRP -0.00649

Hello, the source for this data is the supplement of paper PMC9112550, in case you need it.
